Hello, the source for this data is patent US20260015426A1, in case you need it.

Biological target: T1, human IL1RAP (hu-IL1RAP) on human cells (human, UniProt Q9NPH3 21-570)
T1 sequence: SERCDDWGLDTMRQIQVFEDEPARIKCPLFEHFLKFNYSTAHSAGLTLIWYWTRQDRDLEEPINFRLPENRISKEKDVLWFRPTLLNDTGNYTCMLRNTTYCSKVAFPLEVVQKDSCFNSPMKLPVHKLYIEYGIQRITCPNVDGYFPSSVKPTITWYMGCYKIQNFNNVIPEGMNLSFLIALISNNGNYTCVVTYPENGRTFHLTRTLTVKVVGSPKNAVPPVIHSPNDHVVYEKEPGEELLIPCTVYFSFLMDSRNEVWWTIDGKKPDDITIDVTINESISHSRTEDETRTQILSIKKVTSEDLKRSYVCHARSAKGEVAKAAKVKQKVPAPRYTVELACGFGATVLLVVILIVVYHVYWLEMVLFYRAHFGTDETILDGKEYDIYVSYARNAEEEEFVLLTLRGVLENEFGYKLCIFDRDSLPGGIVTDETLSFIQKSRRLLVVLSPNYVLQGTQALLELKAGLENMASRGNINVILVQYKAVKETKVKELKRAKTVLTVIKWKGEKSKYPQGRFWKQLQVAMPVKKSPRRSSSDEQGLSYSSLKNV
Experiment: cell-based or functional assay
Item-by-item account of HEK-Blue, IL-1β, % inhibition at 100 nM (Fab)
measuredMetric: HEK-Blue, IL-1β, % inhibition at 100 nM (Fab) (%)

binder	experimentalValue
Parent Fab (Fab of h11C5_C59Y/A43S) (Fab, V domains shown, Fab with 8xHis tag; also called parental Fab of h11C5_C59Y/A43S) VH: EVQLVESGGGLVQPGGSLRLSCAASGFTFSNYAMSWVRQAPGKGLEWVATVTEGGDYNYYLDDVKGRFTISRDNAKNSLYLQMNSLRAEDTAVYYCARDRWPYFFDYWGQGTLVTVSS VL: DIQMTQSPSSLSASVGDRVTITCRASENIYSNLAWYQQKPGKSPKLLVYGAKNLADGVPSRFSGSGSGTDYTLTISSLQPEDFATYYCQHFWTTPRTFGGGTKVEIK	96
K10/H2 Fab (VL-A51Y, VH-R96D) (Fab, V domains shown, Fab with 8xHis tag) VH: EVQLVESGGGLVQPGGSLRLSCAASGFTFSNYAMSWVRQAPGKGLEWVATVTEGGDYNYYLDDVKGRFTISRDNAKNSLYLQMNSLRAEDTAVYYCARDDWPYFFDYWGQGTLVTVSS VL: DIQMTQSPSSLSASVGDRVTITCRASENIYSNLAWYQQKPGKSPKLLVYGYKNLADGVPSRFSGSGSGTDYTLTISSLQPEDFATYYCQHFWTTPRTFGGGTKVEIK	100
K13/H2 Fab (VL-A51Y/W92I, VH-R96D) (Fab, V domains shown, Fab with 8xHis tag) VH: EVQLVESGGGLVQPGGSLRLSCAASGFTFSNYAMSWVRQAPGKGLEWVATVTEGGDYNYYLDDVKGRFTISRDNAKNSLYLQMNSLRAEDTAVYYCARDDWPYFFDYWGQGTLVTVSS VL: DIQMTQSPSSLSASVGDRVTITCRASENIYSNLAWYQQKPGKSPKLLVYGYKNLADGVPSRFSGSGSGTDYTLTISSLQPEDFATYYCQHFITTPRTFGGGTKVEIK	100
K17 Fab (VL A51Y/W92K) (Fab, V domains shown, Fab with 8xHis tag) VH: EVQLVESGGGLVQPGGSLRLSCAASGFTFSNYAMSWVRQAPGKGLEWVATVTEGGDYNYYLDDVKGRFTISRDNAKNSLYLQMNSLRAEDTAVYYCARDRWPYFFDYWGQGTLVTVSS VL: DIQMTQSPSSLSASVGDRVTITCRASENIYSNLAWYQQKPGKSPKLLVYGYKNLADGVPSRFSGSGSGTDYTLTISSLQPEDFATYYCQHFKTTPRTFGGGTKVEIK	100
K17/H3 Fab (VL-A51Y/W92K, VH-V51S) (Fab, V domains shown, Fab with 8xHis tag) VH: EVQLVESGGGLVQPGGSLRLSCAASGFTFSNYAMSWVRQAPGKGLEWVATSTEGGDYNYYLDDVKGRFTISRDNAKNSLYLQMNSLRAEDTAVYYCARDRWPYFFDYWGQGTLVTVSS VL: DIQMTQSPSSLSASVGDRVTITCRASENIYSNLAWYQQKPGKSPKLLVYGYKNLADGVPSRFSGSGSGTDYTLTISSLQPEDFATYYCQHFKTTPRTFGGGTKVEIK	100
